From: patent US10398751B2

procedure_summary: Pharmacokinetics of IR formulations in minipigs
Format: in vivo
conditions: minipig, plasma, sc, 0.1 mg/kg, IR, SC, 0.1 mg/Kg; DEX:PEP 5:1 saline; read-out: Minipigs absolute BA (F %)
reported_endpoint: bioavailability

[[record]]
molecule = "C[C@@H](O)[C@@H]1NC(=O)[C@H](CCCCN)NC(=O)[C@@H](Cc2c[nH]c3ccccc23)NC(=O)[C@H](Cc2c[nH]c3ccccc23)NC(=O)[C@H](Cc2ccccc2)NC(=O)CCCNC(=O)CCCN(CC(N)=O)C(=O)[C@H](Cc2ccccc2)NC1=O [Veldoreotide]"
recorded_measurement = "91%"


---

procedure_summary: Solubility screening of veldoreotide acetate (10 mg, incremental volumes of medium, USP definition)
Format: physicochemical
conditions: caprylic acid, 10 mg in Caprylic acid; read-out: 0.5 ml Soluble (0.02 g/ml; 20 mg/ml)
reported_endpoint: solubility

[[record]]
molecule = "C[C@@H](O)[C@@H]1NC(=O)[C@H](CCCCN)NC(=O)[C@@H](Cc2c[nH]c3ccccc23)NC(=O)[C@H](Cc2c[nH]c3ccccc23)NC(=O)[C@H](Cc2ccccc2)NC(=O)CCCNC(=O)CCCN(CC(N)=O)C(=O)[C@H](Cc2ccccc2)NC1=O [Veldoreotide Acetate]"
recorded_measurement = "> 20 mg/mL"

